// GI50 lookup, one value per entry
System: SNB-75
assay-notes: NCI tumour cell line growth inhibition, 48 h
Activity calls are given as the source filed them. No stated cut-off is given here; in the data, active = GI50 up to about 1.1 µM and inactive = higher. Where a SMILES comes first, the peptide text is derived from it.
endpoint: GI50

compound: CC(=O)OCC1OC(OC2CC3C(C)(C)C(=O)CC[C@]3(C)C3CC[C@]45C[C@]4(CCC5[C@@H](C)CC(O)C(O)C(C)(C)O)[C@]23C)C(O)C(O)C1O (some centres undefined)
measurement-target: SNB-75
endpoint: GI50
result: 5.35 µM (inactive)
--
compound: N#Cc1c([N+](=O)[O-])cc(C(F)(F)F)cc1[N+](=O)[O-]
measurement-target: SNB-75
endpoint: GI50
result: 6.22 µM (inactive)
--
compound: CC(C)C(Br)CCC1=CCC(Br)(Br)C1 (centres undefined)
measurement-target: SNB-75
endpoint: GI50
result: 10.9 µM (inactive)
--
compound: CC1NC(=O)CNC(=O)CNC(=O)C(Cc2ccc(O)cc2)NC(=O)C(C(C)C)NC(=O)C(C)NC1=O (centres undefined) (cyclo(GGAAVY); configuration not given here)
measurement-target: SNB-75
endpoint: GI50
result: > 100 µM (inactive)
--
compound: O=C(NC1C2CC3CC(C2)CC1C3)c1ccncn1 (centres undefined)
measurement-target: SNB-75
endpoint: GI50
result: > 100 µM (inactive)
--
compound: O=C1C2C3C4C1C1C2[C@H](OCc2ccccc2)C3C1[C@H]4OCc1ccccc1 (some centres undefined)
measurement-target: SNB-75
endpoint: GI50
result: 38.9 µM (inactive)
--
compound: O=c1cc(/N=N/c2ccc(O)cc2)[nH]c(=O)[nH]1
measurement-target: SNB-75
endpoint: GI50
result: 26.6 µM (inactive)
--
compound: N#CCN1C(=O)c2cccc3cc([N+](=O)[O-])cc(c23)C1=O
measurement-target: SNB-75
endpoint: GI50
result: 38 µM (inactive)
--
compound: Nc1cc2nc(-c3ccccc3)cn2cn1
measurement-target: SNB-75
endpoint: GI50
result: 40.2 µM (inactive)

----------
Test system: UACC-257
assay-notes: NCI tumour cell line growth inhibition, 48 h
The source made the active and inactive calls. No stated cut-off is given here; in the data, active = GI50 up to about 1.1 µM and inactive = higher.
endpoint: GI50

compound: CCN(CC)CC(=O)N1CCc2c([nH]c3ccccc23)C1c1cccnc1 (stereo not given)
endpoint: GI50
result: > 100 µM (inactive)
//
compound: CN1CCC(SC2Cc3cc(Cl)ccc3Sc3ccccc32)CC1 (stereo not given)
endpoint: GI50
result: 7.96 µM (inactive)
//
compound: Cc1cc2c(O)c(c1)CN(CC(=O)O)Cc1cc(C)cc(c1O)CN(CC(=O)O)Cc1cc(C)cc(c1O)CN(CC(=O)O)C2
endpoint: GI50
result: > 100 µM (inactive)
//
compound: COc1ccc(NC(=O)C/C(C)=N\N=C(N)N)c([N+](=O)[O-])c1
endpoint: GI50
result: > 100 µM (inactive)
//
compound: CCO/C=C(\C(=O)OC)S(=O)(=O)c1ccc(C)cc1
endpoint: GI50
result: > 100 µM (inactive)
//
compound: CCOC(=O)/C=C/[C@@H](CC)O[Si](C(C)C)(C(C)C)C(C)C
endpoint: GI50
result: 67.3 µM (inactive)
//
compound: C=C(CCOC)CCC1CCCCC(=C)[C@H]1OC(C)=O (stereo not given in full)
endpoint: GI50
result: > 100 µM (inactive)
//
compound: O=C1c2cc(-c3ccccc3)cnc2S(=O)(=O)N1c1ccc(Br)cc1
endpoint: GI50
result: > 100 µM (inactive)
//
compound: CCn1c2ccccc2n2c(=O)c3c(c(C#N)c12)CCCC3
endpoint: GI50
result: > 100 µM (inactive)
//
compound: Cc1cccc(C)c1NC(=O)C1=NC(=S)NC(c2ccccc2)C1c1nc2ccccc2s1 (stereo not given)
endpoint: GI50
result: > 100 µM (inactive)
